Values from patent US4937236A

# experimental target: 5HT3 receptors located in vagal afferent fibres (Rattus norvegicus)
# Construct: 5HT3 receptors located in vagal afferent fibres; from tissue; host or cells: vagal afferent fibres of the anaesthetized rat (in vivo)
# Sequence (P35563 24-483): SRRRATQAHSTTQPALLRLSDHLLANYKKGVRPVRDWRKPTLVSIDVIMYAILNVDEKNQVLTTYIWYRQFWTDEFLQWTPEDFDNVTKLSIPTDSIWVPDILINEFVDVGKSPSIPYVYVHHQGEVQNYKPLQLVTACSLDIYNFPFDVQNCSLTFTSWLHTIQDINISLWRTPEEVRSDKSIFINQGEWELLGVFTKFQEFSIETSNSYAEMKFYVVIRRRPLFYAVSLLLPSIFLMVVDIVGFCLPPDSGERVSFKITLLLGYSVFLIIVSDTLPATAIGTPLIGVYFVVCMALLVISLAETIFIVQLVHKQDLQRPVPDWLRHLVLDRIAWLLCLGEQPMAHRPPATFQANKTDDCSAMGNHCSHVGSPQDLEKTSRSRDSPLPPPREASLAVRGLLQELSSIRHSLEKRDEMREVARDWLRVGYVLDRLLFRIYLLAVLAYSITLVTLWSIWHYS
# assay info: Inhibition of the Bezold-Jarisch reflex in the anaesthetized rat
# Format: in vivo
# condition parameters: iv, read-out: BEZOLD-JARISCH REFLEX IN THE RAT (ID50; μg/kg i.v.)

[
  {
    "molecule": "CCN(CC)CCNC(=O)c1cc(Cl)c(N)cc1OC [Metoclopramide, reference compound]",
    "unit symbol": "µg/kg",
    "ED50": 330
  },
  {
    "molecule": "COCCOc1cc(N)c(Cl)cc1C(=O)N[C@@H]1C[C@H]2CC[C@@H](C1)N2C",
    "unit symbol": "µg/kg",
    "ED50": 0.63
  },
  {
    "molecule": "Nc1cc(OCC2CC2)c(C(=O)NC2CN3CCC2CC3)cc1Cl (stereo not drawn)",
    "unit symbol": "µg/kg",
    "ED50": 0.56
  },
  {
    "molecule": "CN1[C@@H]2CC[C@H]1C[C@H](NC(=O)c1cc(Cl)c(N)cc1OCC1CC1)C2",
    "unit symbol": "µg/kg",
    "ED50": 2.6
  },
  {
    "molecule": "COc1cc(N)c(Cl)cc1C(=O)NC1CN2CCC1CC2 (stereo not drawn) [Zacopride, reference compound]",
    "unit symbol": "µg/kg",
    "ED50": 0.21
  },
  {
    "molecule": "COCCOc1cc(N)c(Cl)cc1C(=O)NC1CN2CCC1CC2 (stereo not drawn)",
    "unit symbol": "µg/kg",
    "ED50": 0.42
  }
]

###

# Tested on: Apomorphine-induced emesis
# assay info: Apomorphine-induced emesis in the dog
# condition parameters: 1 mg/kg i.v.
measured attribute: APOMORPHINE-INDUCED VOMITING IN THE DOG % Protected animals

[
  {
    "molecule": "COc1cc(N)c(Cl)cc1C(=O)NC1CN2CCC1CC2 (stereo not drawn) [Zacopride, reference compound]",
    "assay result": "0%"
  },
  {
    "molecule": "Nc1cc(OCC2CC2)c(C(=O)NC2CN3CCC2CC3)cc1Cl (stereo not drawn)",
    "assay result": "0%"
  },
  {
    "molecule": "CCN(CC)CCNC(=O)c1cc(Cl)c(N)cc1OC [Metoclopramide, reference compound]",
    "assay result": "100%"
  },
  {
    "molecule": "CN1[C@@H]2CC[C@H]1C[C@H](NC(=O)c1cc(Cl)c(N)cc1OCC1CC1)C2",
    "assay result": "0%"
  },
  {
    "molecule": "COCCOc1cc(N)c(Cl)cc1C(=O)NC1CN2CCC1CC2 (stereo not drawn)",
    "assay result": "0%"
  },
  {
    "molecule": "COCCOc1cc(N)c(Cl)cc1C(=O)N[C@@H]1C[C@H]2CC[C@@H](C1)N2C",
    "assay result": "0%"
  }
]

###

# Test system: CuSO4-induced emesis
# assay info: CuSO4-induced emesis in the dog
# Format: in vivo
# condition parameters: 1 mg/kg i.v.
# From the text: (Kayashima, N., Tanaka, M., Iwasaki, M. & Hayama, T. Japan J. Pharmacol. (1978)28: 775-781).
C4 SO4 - INDUCED VOMITING No EMETIC EPISODES IN THE DOG (% Inh.) under 40% gets true (1), anything at or over 40% gets false (0).

[
  {
    "compound": "CCN(CC)CCNC(=O)c1cc(Cl)c(N)cc1OC [Metoclopramide, reference compound]",
    "experimental target": "CuSO4-induced emesis",
    "group label": "false (0)"
  },
  {
    "compound": "COc1cc(N)c(Cl)cc1C(=O)NC1CN2CCC1CC2 (stereo not drawn) [Zacopride, reference compound]",
    "experimental target": "CuSO4-induced emesis",
    "group label": "true (1)"
  },
  {
    "compound": "COCCOc1cc(N)c(Cl)cc1C(=O)NC1CN2CCC1CC2 (stereo not drawn)",
    "experimental target": "CuSO4-induced emesis",
    "group label": "true (1)"
  },
  {
    "compound": "COCCOc1cc(N)c(Cl)cc1C(=O)N[C@@H]1C[C@H]2CC[C@@H](C1)N2C",
    "experimental target": "CuSO4-induced emesis",
    "group label": "true (1)"
  },
  {
    "compound": "CN1[C@@H]2CC[C@H]1C[C@H](NC(=O)c1cc(Cl)c(N)cc1OCC1CC1)C2",
    "experimental target": "CuSO4-induced emesis",
    "group label": "false (0)"
  }
]

###

# System: Cis-platinum induced emesis
# assay info: Cis-platinum induced emesis in the dog
# Type: in vivo
# condition parameters: 0.03 mg/kg i.v.
Decision: CISPLATIN-INDUCED VOMITING IN THE DOG (% inhibition) compared against 80%; not below it gives true (1), below it gives false (0).

[
  {
    "molecule": "CN1[C@@H]2CC[C@H]1C[C@H](NC(=O)c1cc(Cl)c(N)cc1OCC1CC1)C2",
    "group label": "false (0)"
  },
  {
    "molecule": "COCCOc1cc(N)c(Cl)cc1C(=O)N[C@@H]1C[C@H]2CC[C@@H](C1)N2C",
    "group label": "false (0)"
  },
  {
    "molecule": "COc1cc(N)c(Cl)cc1C(=O)NC1CN2CCC1CC2 (centres unmarked) [Zacopride, reference compound]",
    "group label": "true (1)"
  },
  {
    "molecule": "Nc1cc(OCC2CC2)c(C(=O)NC2CN3CCC2CC3)cc1Cl (centres unmarked)",
    "group label": "true (1)"
  }
]

###

# System: gastric emptying
# assay info: Stomach emptying (gastric emptying of glass beads) in the rat
# Format: in vivo
# Parameters: unit not given here
# condition parameters: 1.0 mg/kg p.o.
GASTRIC EMPTYING IN THE RAT [drawing 8] under 70 gets True, anything at or over 70 gets False.

[
  {
    "compound": "CCN(CC)CCNC(=O)c1cc(Cl)c(N)cc1OC [Metoclopramide, reference compound]",
    "experimental target": "gastric emptying",
    "group label": "True"
  },
  {
    "compound": "COCCOc1cc(N)c(Cl)cc1C(=O)N[C@@H]1C[C@H]2CC[C@@H](C1)N2C",
    "experimental target": "gastric emptying",
    "group label": "True"
  },
  {
    "compound": "Nc1cc(OCC2CC2)c(C(=O)NC2CN3CCC2CC3)cc1Cl (stereo not drawn)",
    "experimental target": "gastric emptying",
    "group label": "False"
  },
  {
    "compound": "COc1cc(N)c(Cl)cc1C(=O)NC1CN2CCC1CC2 (stereo not drawn) [Zacopride, reference compound]",
    "experimental target": "gastric emptying",
    "group label": "False"
  }
]
